# method notes: qHTS of pediatric cancer cell lines to identify multiple opportunities for drug repurposing: Primary screen for MG 63 (6-TG R) cells (AID 1347105); further: nearly all actives have a fitted effect of over 50% in size
# experimental setup: MG 63 (6-TG R) viability, CellTiter-Glo, 48 h; series mostly up to 46 µM
# Procedure: Drug repurposing or repositioning has been offered as a strategy for drug development in oncology programs. This approach has special potential for childhood cancers and other rare or orphan diseases, where the expected return on new drug development has been a disincentive to pharmaceuticals. […] We employed a titration-based paradigm (quantitative high-throughput screening or qHTS), where all compounds were tested at multiple concentrations for their effect on cell viability. […]
Inconclusive results are not listed. Calls of active or inactive are those of the source. The call rests on the fitted dose curve; in most records, active means well fitted cell-killing curve with a large enough effect; inconclusive means small, poorly fitted or top-dose-only effect; inactive means no such curve, though single readings can be large or run the other way.
Outcomes: active, inactive

compound	cat
C=C[C@@]1(C)CC(=O)[C@]2(O)[C@@]3(C)[C@@H](O)CCC(C)(C)[C@@H]3[C@H](O)[C@H](OC(C)=O)[C@@]2(C)O1	inactive
CCC(Cc1c(I)cc(I)c(N)c1I)C(=O)O (stereo not drawn)	inactive
N#CCC(=O)NN	inactive
C/C=C/c1ccc(O)c(OC)c1	inactive
NC1CCN(c2nc3c(cc2F)c(=O)c(C(=O)O)cn3-c2ccc(F)cc2F)C1 (stereo not drawn)	inactive
O=C(Nc1ccc([N+](=O)[O-])cc1)Nc1ccc([N+](=O)[O-])cc1	inactive
COc1cc(C(=S)N2CCOCC2)ccc1O	inactive
CC(C)(Cc1c[nH]c2ccccc12)NCC(O)COc1ccccc1C#N (stereo not drawn)	inactive
CC1=C(C(=O)O)N2C(=O)[C@@H](NC(=O)[C@H](N)c3ccccc3)[C@H]2SC1	inactive
CCCCC(CC)CN1CN(CC(CC)CCCC)CC(C)(N)C1 (stereo not drawn)	inactive
O=S(=O)(O)c1ccc(O)cc1	inactive
COc1ccc(C(=O)c2ccccc2)c(O)c1	inactive
Cc1ccc(S(=O)(=O)NC(=O)NC2CCCC2)cc1	inactive
FC1(F)C(F)(F)C(F)(F)C2(F)C(F)(F)C(F)(F)C(F)(F)C(F)(F)C2(F)C1(F)F (stereo not drawn)	inactive
Cc1cc(NS(=O)(=O)c2ccc(N)cc2)nc(C)n1	inactive
CC(=O)OC[C@H]1O[C@@H](n2ncc(=O)[nH]c2=O)[C@H](OC(C)=O)[C@@H]1OC(C)=O	inactive
CCCCC(CC)COC(=O)c1ccc(N(C)C)cc1 (stereo not drawn)	inactive
NS(=O)(=O)c1cc(C(=O)O)cc(N2CCCC2)c1Oc1ccccc1	inactive
CC1CCc2c(N3CCC(O)CC3)c(F)cc3c(=O)c(C(=O)O)cn1c23 (stereo not drawn)	inactive
Oc1ccccc1C=NCc1ccccc1	inactive
CC(C)=CCOc1ccc(/C=C/C(=O)c2ccc(OCC=C(C)C)cc2OCC(=O)O)cc1	active
CCOc1ccc(NC(C)=O)cc1	inactive
O=C(Nc1cccc(C2=NCCN2)c1)Nc1cccc(C2=NCCN2)c1	inactive
